Hello, the source for this data is ChEMBL document CHEMBL2424603, in case you need it.

# Tested on: Plasmodium falciparum
# PROCEDURE_SUMMARY: Antiplasmodial activity against chloroquine/pyrimethamine-resistant Plasmodium falciparum K1 assessed as growth inhibition after […] by [3H]-hypoxanthine incorporation assay
# Assay type: functional, organism-based
Under this convention, condition met denotes IC50 strictly below 10 µM and condition not met denotes IC50 at or above 10 µM.

# ITEM_SMILES, LABEL_VALUE
measured = [
    ("O=c1oc2cc(O)ccc2cc1Oc1ccc(Cl)cc1O", "condition not met"),
    ("O=c1ccc2ccc(Oc3ccc(Cl)cc3O)cc2o1", "condition met"),
    ("O=c1ccc2cc(Oc3ccc(Cl)cc3O)ccc2o1", "condition not met"),
    ("Cc1c(Oc2ccc(Cl)cc2O)c(=O)oc2ccccc12", "condition not met"),
    ("Oc1cc(Cl)ccc1Oc1ccc(Cl)cc1Cl", "condition met"),
    ("CCc1cc(=O)oc2ccc(Oc3ccc(Cl)cc3O)cc12", "condition met"),
    ("CCc1cc(=O)oc2cc(Oc3ccc(Cl)cc3O)ccc12", "condition met"),
    ("Cc1cc(=O)oc2ccc(Oc3ccc(Cl)cc3O)cc12", "condition not met"),
    ("O=c1oc2cc(O)ccc2cc1-c1ccc(Oc2ccc(Cl)cc2O)cc1", "condition met"),
    ("Cc1c(Oc2ccc(Cl)cc2O)c(=O)oc2cc(O)ccc12", "condition not met"),
    ("O=c1oc2ccccc2cc1Oc1ccc(Cl)cc1O", "condition not met"),
    ("Cc1cc(=O)oc2cc(Oc3ccc(Cl)cc3O)ccc12", "condition met"),
    ("O=c1oc2cc(O)cc(O)c2cc1Oc1ccc(Cl)cc1O", "condition not met"),
    ("O=c1oc2ccc(O)cc2cc1Oc1ccc(Cl)cc1O", "condition not met"),
]
